Test: Loss of mixed oxidant activity on exposure to additives (iodometric thiosulfate titration)
Type: physicochemical
Settings: emollients; 24 hours, 23° C.; beginning mixed oxidant 3800-4100 ppm as available chlorine
measured.parameter: % Loss of mixed oxidant activity after 24 hours at (23° C.) exposure to mixed oxidant

Take a look at these entries with their results.
compound	observed
OCC(O)CO	97%
CCCCCCCCCCCCCCCCCC(=O)OCCCCCCCC [Octyl stearate]	11%
CC(C)CCCCCCCCCCCCCCC(=O)OC(C)C [Isopropyl Isostearate]	11%
CC(C)CCCCCCCCCCCCCCCOC(=O)CCCCC(=O)OCCCCCCCCCCCCCCCC(C)C [Diisostearyl Adipate]	13%
OC[C@@H](O)[C@@H](O)[C@H](O)[C@@H](O)CO	78%

// returns reported % Loss of mixed oxidant activity after 24 hours at (23° C.) exposure to mixed oxidant for input CC(O)CO (stereo not drawn)
71%
